Property: Neutralization IC50 (RSV subtype A); scope: individual binders
Molecular target: RSV F on RSV-A2 virus (Respiratory syncytial virus (RSV-A2))
Experiment: cell-based or functional assay
propertyLabel: Neutralization IC50 (RSV subtype A) (µg/mL)

binder="ADI-41315 (antibody, V domains shown) VH: EVQLLESGPGLVKPSETLSLTCAVSGGSISNYYWSWIRQPPGKGLEWIAYISYSGTTNYNPSLESRVTISVDTSKNQFSLKLNSVTAADTAVYYCARHEFLVLPDVWGQGTLVTVSS VL: ETTLTQSPGTLSLSPGERATLSCRASQSVSSTFLAWYQQKPGQAPRLLIYAASSRATGIPDRFSGSGSGTDFTLIISRLEPEDFAVYYCQQYRSSPFSFGPGTKVEIK" propertylabel="Neutralization IC50 (RSV subtype A)" unittext=µg/mL valuerelationsign=> recordedmeasurement=25
binder="ADI-41253 (antibody, V domains shown) VH: EVQLVQSGPGLVKPSETLSLTCTVSGDSISSSDYSYYWGWIRQPPGKGLEWIASLSYSGKTYSQSSLKSRVIISVDTSKKQFSLKLSSVTAADTAVYYCAVTRCYVCTSEGDSFDMWGQGTMVTVSS VL: DIVLTQTPGTLSLSPGERATLSCRASQSISGNYLAWYQHKPGQAPRLLIYGASTRATGIPDRFSGSGSGTDFPLTISRLEPEDFAVYYCQQYATSPYTFGQGTKVDIK" propertylabel="Neutralization IC50 (RSV subtype A)" unittext=µg/mL valuerelationsign== recordedmeasurement=0.03
binder="ADI-41258 (antibody, V domains shown) VH: QVQLVQSGGGLVQRGGSLRLSCAASGFSFRSYAMSWVRQAPGKGLEWVSSISDSGDNTFYADSVKGRFSISRDNSRDTLYLQMNSLRAEDTAVYYCARGGYCSGGNCFPFDYWGQGTLVTVSS VL: SYELMQLPSVSVSPGQTARITCSGDALPKQYGYWYQQKPGQAPVLVIYKDSERPSGIPERFSGSSSGTTVTLTISGVQAEDEADYYCQSADSGGTYVMFGGGTKLTVL" propertylabel="Neutralization IC50 (RSV subtype A)" unittext=µg/mL valuerelationsign=> recordedmeasurement=25
binder="ADI-41308 (antibody, V domains shown) VH: EVQLVESGPGLVKPSQTLSLTCAISGDSVSSNSAAWNWIRQSPSRGLERMGRTYYRSKWYDDYAVSVKSRIIINPDTSKNQFSLQLNSVTPEDTAVYYCARGISTFGGVIYALEIWGQGTMVTVSS VL: SYVLTQPASVSGSPGQSITISCTGLTSDVGGYNFVSWYQQHPGKAPKLIIYDVSHRPSGVSNRFSGSESGNTASLTISGLQAEDEAHYYCSSYTRTSIVVFGGGTKLTVL" propertylabel="Neutralization IC50 (RSV subtype A)" unittext=µg/mL valuerelationsign=> recordedmeasurement=25
binder="ADI-41348 (antibody, V domains shown) VH: QVQLQESGPGLVKPSQTLSLTCAVSGGSISSGGYYWSWIRQHPGKGLEWIGYIYYSGSTYYNPSLKSPVTISVDTSKNQFSLKLTSVTAADTAVYYCARGDYYFDGSGRTTAAFDIWGQGTMVTVSS VL: DIQVTQSPSSLSASVGDRVTITCRASQSISTFLNWYQQKPGRAPKLLIYDASNLQSGVPSRVSGSGSGTDFTLTISSLHPEDFATYYCQQSYTTPYTFGQGTKVDIK" propertylabel="Neutralization IC50 (RSV subtype A)" unittext=µg/mL valuerelationsign== recordedmeasurement=0.0765
